# Study System: T1, human C-KIT-Fc (human, UniProt P10721 26-524)
# T1 construct: also called biotinylated human C-KIT-Fc; not shown: Fc part not described
# Experimental Details: direct ELISA;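 note: Plate-coated C-KIT-Fc (1 µg/ml) probed with antibodies for 1 hr, bound IgG detected via anti-human kappa-HRP and TMB, absorbance measured at 450 nm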
Experimental Readout: binding result

>>> recorded_result("MH6 (antibody, IgG1, V domains shown, IgG1) VH: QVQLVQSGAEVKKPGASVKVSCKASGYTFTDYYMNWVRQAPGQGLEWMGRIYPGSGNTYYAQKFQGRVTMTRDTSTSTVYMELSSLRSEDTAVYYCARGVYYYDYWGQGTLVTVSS VL: DIQMTQSPSSLSASVGDRVTITCRASQGIRTNLAWFQQKPGKAPKSLIYSASSLQSGVPSRFSGSGSGTDFTLTISSLQPEDFATYYCQQYNSYPKTFGGGTKVEIK")
"binds"
>>> recorded_result("MH5.8 (antibody, IgG1, V domains shown, IgG1) VH: QVQLVQSGAEVKKPGASVKVSCKASGYTFTDHYMNWVRQAPGQGLEWMGRIYPGAGNTYYAQKFQGRVTMTRDTSTSTVYMELSSLRSEDTAVYYCARGVWYFDSWGQGTLVTVSS VL: DIQMTQSPSSLSASVGDRVTITCRASQGIRTNLAWFQQKPGKAPKSLIYAASSLQSGVPSRFSGSGSGTDFTLTISSLQPEDFATYYCQQYANYPRTFGGGTKVEIK")
"binds"
>>> recorded_result("MH5.12 (antibody, IgG1, V domains shown, IgG1) VH: QVQLVQSGAEVKKPGASVKVSCKASGYTFTDHYMNWVRQAPGQGLEWMGRIYPASGNTYYAQKFQGRVTMTRDTSTSTVYMELSSLRSEDTAVYYCARGVWYFDSWGQGTLVTVSS VL: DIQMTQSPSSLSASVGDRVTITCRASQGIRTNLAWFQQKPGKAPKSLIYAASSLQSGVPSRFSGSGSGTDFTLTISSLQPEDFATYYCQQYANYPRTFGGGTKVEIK")
"binds"
